System: L. donovani-infected THP-1 macrophages, intracellular amastigote imaging
Experiment: antileishmanial activity in infected THP-1 macrophages – imaging, THP-1 host macrophages, host toxicity (AID 1159564)
Details: measured here: THP-1 host cell toxicity
pIC50: −log10 of the molar value.
Answer Condition not met if pIC50 is under 5, and Condition met if it is 5 or more.

Solved cases below.
INSERT INTO results (molecule, class) VALUES
  ('CCN(CC)c1ncc(C(=O)c2ccc([N+](=O)[O-])o2)s1', 'Condition met'),
  ('N#Cc1cc(N2CCCC2=O)ccc1Sc1ccccc1CO', 'Condition not met'),
  ('O=C(COc1nn(-c2ccccc2)c2ncccc12)NCc1ccccc1', 'Condition not met'),
  ('COc1ccc(CN(C)Cc2ccncc2)cc1-c1ccc(S(=O)(=O)NC2CCC2)s1', 'Condition not met'),
  ('O=C(NCCc1csc(-c2ccc(F)cc2)n1)c1ccco1', 'Condition not met'),
  ('CN(Cc1ccc(F)cc1)c1ccc(OCC(=O)N2CCCCC2c2cccnc2)nn1 (stereo not drawn)', 'Condition not met');

# next molecule below
Decide: is the reported value of pIC50 for CCN(CC)S(=O)(=O)c1ccc(C(=O)Nc2cc(C)nn2-c2nc(C)c(C)c(=O)[nH]2)cc1 equal to or greater than 5?
Condition met

---

Tested on: L. donovani-infected THP-1 macrophages, intracellular amastigote imaging
Experiment: antileishmanial activity in infected THP-1 macrophages – imaging, THP-1 host macrophages, host toxicity (AID 1159564)
Details: measured here: THP-1 host cell toxicity
pIC50: −log10 of the molar value.
Test readout: pIC50

See these solved cases before continuing.
INSERT INTO assay_data (molecule, test_readout, assay_result) VALUES
  ('Cc1cc2cncn2c(C2CCCCN2C(=O)c2cccs2)n1 (stereo not drawn)', 'pIC50', '< 4.30'),
  ('O=C(CCc1ccc(-c2ccccc2)o1)N1CCN(c2ccc(O)cc2)CC1', 'pIC50', '< 4.30'),
  ('CCCC(=O)N(Cc1ccccn1)c1nc2ccccc2s1', 'pIC50', '< 4.30');

Dear reader, for each entry below, please note its pIC50.
1. O=C(O)[C@H]1C[C@@H]1c1ccc(-c2ccc(CN(CCc3ccccn3)C(=O)C3CCC3)cc2)cc1
2. c1ccc(Nc2nc(-c3ccccn3)cc(N3CCOCC3)n2)cc1
3. O=C(NCCc1cccnc1)c1ccc(-c2ccccc2F)o1

1: < 4.30; 2: < 4.30; 3: < 4.30

Dear reader, for each entry below, please note its pIC50.
1. CC(C)c1sc(Cl)nc1C(=O)NCCc1nc(C(=O)Nc2ccc3c(c2)OCO3)cs1
2. CCCCn1nnnc1CSc1nc(C)cc(C)c1C#N
3. O=C1CN(C2CCCc3c(OCc4ccncc4)cccc32)C(=O)N1C1CCCCC1 (stereo not drawn)
4. Nc1nc(-c2ccccn2)nc(-n2nc(-c3cccc(C(F)(F)F)c3)cc2N)n1
5. Cc1cn[nH]c1C1CCCN(Cc2nc3ccccc3n2C)C1 (stereo not drawn)
6. COc1ccc(NC(=O)c2ccc(NC(=O)CN(c3ccccc3C)S(C)(=O)=O)cc2)cc1

["< 4.30", "< 4.30", "< 4.30", 5.30, 4.70, "< 4.30"]

Dear reader, for each entry below, please note its pIC50.
1. Clc1cc(Br)ccc1OCCCCn1ccnc1
2. NC(=O)c1cc(NC(=O)c2ccccc2COc2ccccc2)ccc1Cl
3. Cn1cc(CN2CCN(c3ccc4c(c3)CCN(C(=O)[C@H]3C[C@@H]3c3ccccc3)CC4)CC2)cn1
4. O=C(CN1CCN(S(=O)(=O)c2cccc([N+](=O)[O-])c2)CC1)Nc1ccc(Oc2ccccc2)cc1
5. CS(=O)(=O)N1CCC(Nc2ncc(Br)c(Nc3cccc(F)c3C(N)=O)n2)CC1
6. CC1=NN(C(=O)CCn2cnc([N+](=O)[O-])n2)C(O)(C(F)(F)F)C1 (stereo not drawn)
7. COc1cc(C2SCC(=O)Nc3c2c(C)nn3-c2nc3ccccc3s2)cc(OC)c1O (stereo not drawn)
8. COc1cccc2sc(CN(C)C(=O)C3CNCCN3c3ccc(F)cc3)c(C)c12 (stereo not drawn)

1. 4.49
2. 4.80
3. 5.20
4. < 4.30
5. 6.00
6. < 4.30
7. < 4.30
8. 4.89

Dear reader, for each entry below, please note its pIC50.
1. Cc1ccc2onc(Nc3ccnc(Nc4cccc(S(C)(=O)=O)c4)n3)c2c1
2. COc1cc(-c2nc(N3CCOCC3)sc2-c2ccnc(NC3CCOCC3)n2)ccc1Cl
3. COCc1cc(Nc2ccccc2)nc(-c2ccccn2)n1

4.70
< 4.30
< 4.30

The reported measurements were obtained from PubChem BioAssay AID1159564.
